System: A375
EXPERIMENT_DESCRIPTION: Cancer cell growth inhibition, A375
Format: cell-based, human
CONDITION_SET: Homo sapiens, A-375; A375, Melanoma, 72 h treatment
MEASUREMENT_KIND: IC50 (µM)
Number only, in µM; omit the unit.

Solved cases (3 shown):
- SAMPLE_SMILES: "O=C(NO)c1ccc(CNC(=O)c2[nH]c(-c3ccoc3)cc2-c2ccc(O)cc2)cc1"
  STUDY_SYSTEM: "A375"
  MEASUREMENT_KIND: "IC50"
  UNIT_TEXT: "µM"
  REPORTED_MEASUREMENT: 10.2
- SAMPLE_SMILES: "COc1ccc(-c2cc(-c3ccsc3)c(C(=O)NCc3ccc(C(=O)NO)cc3)[nH]2)cc1"
  STUDY_SYSTEM: "A375"
  MEASUREMENT_KIND: "IC50"
  UNIT_TEXT: "µM"
  REPORTED_MEASUREMENT: 4.27
- SAMPLE_SMILES: "COc1ccc(-c2cc(-c3ccoc3)c(C(=O)NCc3ccc(C(=O)NO)cc3)[nH]2)cc1"
  STUDY_SYSTEM: "A375"
  MEASUREMENT_KIND: "IC50"
  UNIT_TEXT: "µM"
  REPORTED_MEASUREMENT: 1.04

Query block: Short answer please: IC50, A375, entry `O=C(NO)c1ccc(CNC(=O)c2[nH]c(-c3ccc(O)cc3)cc2-c2ccoc2)cc1`
Result block: 3.68

Query block: Short answer please: IC50, A375, entry `O=C(NO)c1ccc(CNC(=O)c2[nH]c(-c3ccc(O)cc3)cc2-c2ccsc2)cc1`
Result block: 7.7
